These entries and their values trace back to BindingDB's records for doi:10.1016/j.bmc.2012.09.049.

Quick list: pIC50 per entry.
TEST_SYSTEM: Excitatory amino acid transporter 2 (Homo sapiens)
METHOD_DESCRIPTION: Inhibition of [3H]-D-aspartate uptake at human EAAT2 expressed in HEK293 cells after 6 mins by scintillation counting
pIC50: −log10 of the molar value.

COc1ccc2c(C)c(-c3ccc(C4C5=C(CC(c6ccccc6)CC5=O)OC(=N)C4C#N)cc3)c(=O)oc2c1 (centres undefined): < 3.52
COc1ccc2c(C3C4=C(CC(c5ccccc5)CC4=O)OC(=N)C3C#N)cc(=O)oc2c1 (centres undefined): < 3.52
CCN(CC)c1ccc2c(C)c(-c3ccc(C4C5=C(CC(c6ccccc6)CC5=O)OC(=N)C4C#N)cc3)c(=O)oc2c1 (centres undefined): < 3.52

For the next question, use this compound.
Task: State the recorded pIC50 for this entry: CCN(CC)c1ccc2c(C3C4=C(CC(c5cccc6ccccc56)CC4=O)OC(=N)C3C#N)cc(=O)oc2c1 (centres undefined)
Output: < 3.52
